# systemName: STARD3 (Homo sapiens, UniProt Q14849)
# Construct: STARD3(216-444); made in house; host or cells: E. coli BL21(DE3)
# Sequence (Q14849 216-444): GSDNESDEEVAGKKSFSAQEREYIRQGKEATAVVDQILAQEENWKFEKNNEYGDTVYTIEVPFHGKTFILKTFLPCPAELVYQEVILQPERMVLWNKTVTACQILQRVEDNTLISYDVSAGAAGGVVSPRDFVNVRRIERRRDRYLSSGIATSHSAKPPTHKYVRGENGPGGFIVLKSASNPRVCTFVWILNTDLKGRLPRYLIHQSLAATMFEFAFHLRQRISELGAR
# procedureSummary: Differential scanning fluorimetry (DSF), STARD3
# Format: binding
# studyConditions: single dose, Dose = 10 µM
# Text: Protein expression constructs Human ASTER domains of Aster-A(359-547), -B(364-552) and -C(318-504) were subcloned into a pGEX-6p-2rbs vector, thus introducing the cloning artifact ‘GPLGS’.3 The pGEX-6P-1-GST-OSBP(377- […] a gift from James H. Hurley (University of California).4 The pHIS_2His6_Thrombin_STARD4(2-205;C75S) plasmid was a gift from Young Jun Im (Chonnam National University).5 STARD5A was a gift from Nicola Burgess-Brown (Addgene plasmid #42392; http://n2t.net/addgene:42392; […]
endpointName: ΔTm at 10 µM (°C)
Use °C as the unit, but write only the number.

molecule | endpointName | measurementUnits | readoutValue
C[C@]12CC[C@@H](O)C[C@H]1CCc1[nH]c(-c3ccccc3)nc12 | ΔTm at 10 µM | °C | -0.0297
CCCCCNc1ccc2c(c1)[C@@]13CC[C@@H]4C[C@@H](CC[C@@]41C)OC3=N2 [Compound 19c] | ΔTm at 10 µM | °C | 4.3
C[C@]12CC[C@@H]3C[C@H]1CC[C@@]21C(=Nc2c(F)cc(Cl)cc21)O3 [Compound 15i] | ΔTm at 10 µM | °C | -0.0884

Ask | Note down ΔTm at 10 µM recorded for CC12CCC(O)CC1CCc1c2[nH]c2ccc(C(F)(F)F)cc12 (stereo not shown) [Compound 10g]
Reply | 0.227

###

Parameter pIC50, tested on UniProtKB Q9BXW6, listed per item.
Sequence (Q9BXW6 534-950): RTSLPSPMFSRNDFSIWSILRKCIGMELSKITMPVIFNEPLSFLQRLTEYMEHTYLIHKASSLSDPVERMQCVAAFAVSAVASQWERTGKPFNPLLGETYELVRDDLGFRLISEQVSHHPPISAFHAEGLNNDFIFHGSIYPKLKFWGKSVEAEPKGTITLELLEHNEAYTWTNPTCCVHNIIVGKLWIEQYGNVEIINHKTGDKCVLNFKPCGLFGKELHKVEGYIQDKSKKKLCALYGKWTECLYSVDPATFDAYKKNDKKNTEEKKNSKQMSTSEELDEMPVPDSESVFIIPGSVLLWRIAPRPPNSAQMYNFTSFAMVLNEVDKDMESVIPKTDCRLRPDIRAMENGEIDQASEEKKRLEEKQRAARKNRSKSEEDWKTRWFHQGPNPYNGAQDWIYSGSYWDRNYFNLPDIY
// pIC50: -log10(molar conc.)

// known answers, use as guide
compound | readoutValue
CCCCN(C)c1ccc2c(c1)[C@@]13CC[C@@H]4C[C@@H](CC[C@@]41C)OC3=N2 [Compound 19d] | 5.20
C[C@]12CC[C@@H]3C[C@H]1CC[C@@]21C(=Nc2ccc(C(F)(F)F)cc21)O3 [Compound 15g] | 4.89
COc1ccc(-c2ccc3c(c2)C24CCC5CC(CCC52C)OC4=N3)cc1 (centres unmarked) [Compound 21b] | 5.28
CC12CCC3CC1CCC21C(=Nc2ccc(NCc4ccccc4)cc21)O3 (centres unmarked) [Compound 19b] | 4.66
C[C@@]12CC[C@H]3C[C@@H]1CC[C@]21C(=Nc2ccc(Br)cc21)O3 [(−)-15b] | 4.81
CC(C)Oc1ccc(C(=O)Nc2nc3c(s2)CN(C(=O)OC(C)(C)C)CC3)cc1 [Autogramin-2, reference compound] | 5.37

Let's switch to this compound now.
Ask | Report value: pIC50, system: UniProtKB Q9BXW6, compound: C[C@]12CC[C@@H]3C[C@H]1CC[C@@]21C(=Nc2ccc(Br)cc21)O3 (racemic) [Compound 15b]
Reply | 4.68

###

The compounds listed here are annotated with their STARD3 (DSF) ΔTm.
# systemName: STARD3 (Homo sapiens, UniProt Q14849)
# Construct: STARD3(216-444); made in house; host or cells: E. coli BL21(DE3)
# procedureSummary: Differential scanning fluorimetry (DSF), STARD3
# Format: binding
# studyConditions: single dose, Dose = 10 µM
Use °C as the unit, but write only the number.

// known answers, use as guide
compound | systemName | STARD3 (DSF) ΔTm (°C)
C[C@]12CC[C@@H](O)C[C@H]1CCc1nc3cc(F)c(F)cc3nc12 [Compound 7c] | STARD3 (Homo sapiens, UniProt Q14849) | -0.124
C[C@]12CC[C@@H](O)C[C@H]1CCC[C@]21Nc2ccccc2-n2cccc21 [Compound 4] | STARD3 (Homo sapiens, UniProt Q14849) | 0.9
CC12CCC3CC1CCC21C(=Nc2ccc(N4CCOCC4)cc21)O3 (single isomer, unassigned; (-)) [(−)-19a] | STARD3 (Homo sapiens, UniProt Q14849) | 1.0
C[C@]12CC[C@@H](O)C[C@H]1CCC(=O)c1ccccc1NC2=O [Compound 11a] | STARD3 (Homo sapiens, UniProt Q14849) | -0.0327

Ask | Note down STARD3 (DSF) ΔTm recorded for COc1ccc2c(c1)C(=O)N[C@]1(CCC[C@@H]3C[C@H](O)CC[C@@]31C)N2 [Compound 5c]
Reply | 0.0624

Ask | Note down STARD3 (DSF) ΔTm recorded for C[C@]12CC[C@@H](O)C[C@H]1CCc1sc(-c3ccc(F)cc3)nc12 [Compound 8e]
Reply | 0.0572

Values compiled from paper PMC11758220.
